In this section, each of the molecules is paired with its reported ERE α-ER Max.
Test Target: αER (Homo sapiens)
Construct: expressed in transfected cells; host or cells: 293 cells (Human Embryonic Kidney, ATCC CRL-1573); the transfection step says 293T
Sequence (P03372 whole entry): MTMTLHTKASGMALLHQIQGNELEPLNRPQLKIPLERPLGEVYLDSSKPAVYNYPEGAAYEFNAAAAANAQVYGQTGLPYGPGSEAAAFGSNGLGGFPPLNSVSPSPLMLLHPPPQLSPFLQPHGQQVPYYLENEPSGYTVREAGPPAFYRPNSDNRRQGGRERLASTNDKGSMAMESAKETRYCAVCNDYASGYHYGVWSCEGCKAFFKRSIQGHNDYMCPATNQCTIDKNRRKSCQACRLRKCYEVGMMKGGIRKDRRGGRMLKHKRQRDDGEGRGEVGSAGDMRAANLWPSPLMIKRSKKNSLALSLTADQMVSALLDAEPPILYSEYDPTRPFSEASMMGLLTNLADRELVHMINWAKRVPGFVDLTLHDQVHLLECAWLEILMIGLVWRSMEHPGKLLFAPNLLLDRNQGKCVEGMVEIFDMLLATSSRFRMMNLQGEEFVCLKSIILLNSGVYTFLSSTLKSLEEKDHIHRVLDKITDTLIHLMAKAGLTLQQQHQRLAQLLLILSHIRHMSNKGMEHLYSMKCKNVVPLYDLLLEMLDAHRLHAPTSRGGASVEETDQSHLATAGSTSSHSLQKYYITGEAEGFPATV
Test Description: Cell-based assay for ER transcriptional activity (ERE β-gal reporter), αER-transfected 293 cells
Test Conditions: 293 cells transfected with αER; max controls 10 nM beta-estradiol
Measured Metric: ERE α-ER Max (%)

>>> print(df.to_string())
                       structure_string  measured_metric  assay_value
0      Oc1ccc(-c2nc3c(Cl)cc(O)cc3o2)cc1     ERE α-ER Max          103
1       Cc1cc(O)cc2oc(-c3ccc(O)cc3)nc12     ERE α-ER Max          102
2       Oc1ccc(-c2nc3c(O)cc(O)cc3o2)cc1     ERE α-ER Max          102
3  Oc1cc(Br)c2oc(-c3ccc(O)c(Cl)c3)nc2c1     ERE α-ER Max           37
